Molecular target: prostacyclin synthase (Homo sapiens)
Construct: obtaining cultured human endothelial cells from unbilical vein; endogenous in cells
Sequence (Q16647 whole entry): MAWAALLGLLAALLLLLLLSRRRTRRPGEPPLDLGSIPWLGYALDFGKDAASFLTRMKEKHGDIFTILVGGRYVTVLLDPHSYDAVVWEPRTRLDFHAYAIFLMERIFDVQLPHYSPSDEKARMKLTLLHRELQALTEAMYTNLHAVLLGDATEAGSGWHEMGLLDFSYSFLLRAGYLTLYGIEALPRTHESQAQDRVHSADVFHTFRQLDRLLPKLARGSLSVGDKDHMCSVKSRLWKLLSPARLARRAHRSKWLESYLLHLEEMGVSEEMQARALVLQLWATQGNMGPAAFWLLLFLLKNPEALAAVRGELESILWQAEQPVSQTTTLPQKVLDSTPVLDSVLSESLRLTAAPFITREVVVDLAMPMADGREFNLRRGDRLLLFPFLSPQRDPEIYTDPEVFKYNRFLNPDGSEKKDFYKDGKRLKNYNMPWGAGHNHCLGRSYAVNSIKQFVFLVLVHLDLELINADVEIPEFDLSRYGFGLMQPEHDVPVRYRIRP
Assay: test (g): prostacyclin synthase inhibition in cultured human endothelial cells (6-oxoPGF1a radioimmunoassay)
Details: human endothelial cells from umbilical vein; unit inferred
pIC50: −log10 of the molar value.
Measurement name: pIC50

item_smiles=Cc1ccc(OC(C)(C)[C@H]2OC[C@@H](C/C=C\CCC(=O)O)[C@@H](c3cncs3)O2)c([N+](=O)[O-])c1 reading=3.68
